Target: PAR2 (HT-29 cells) (Homo sapiens, UniProt P55085)
Construct: host or cells: HT-29
Sequence (P55085 26-397): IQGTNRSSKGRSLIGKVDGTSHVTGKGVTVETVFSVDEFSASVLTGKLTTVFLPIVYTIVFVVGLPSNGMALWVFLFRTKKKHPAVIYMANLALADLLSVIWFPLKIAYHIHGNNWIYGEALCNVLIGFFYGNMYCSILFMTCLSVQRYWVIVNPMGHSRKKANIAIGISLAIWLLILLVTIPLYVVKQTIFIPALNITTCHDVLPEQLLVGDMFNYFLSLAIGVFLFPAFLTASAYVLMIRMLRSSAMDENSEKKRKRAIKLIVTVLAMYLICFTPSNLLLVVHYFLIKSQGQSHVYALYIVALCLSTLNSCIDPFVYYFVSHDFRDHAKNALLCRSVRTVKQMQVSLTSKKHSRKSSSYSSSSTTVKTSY
Test: Ca FLIPR TETRA assay, ANTAGONIST mode, activator 3.1 U/mL trypsin
Format: cell-based
Settings: HT-29 cells, activator 3.1 U/mL trypsin; maximal antagonist concentration per Method (A: 0.1, 1 or 2 μM; B: 50 μM)
pIC50: −log10 of the molar value.
Label F if pIC50 falls below 8; label T in every other case.

Form field: pIC50 at least 8? Entry: CC(C)c1cc(-c2ccc(F)cc2)nc2cc(C(=O)N3CCN(S(=O)(=O)c4cn[nH]c4)CC3(C)C)oc12
F

Would you say CC(C)(C)CC(O)C(=O)N1CCN(C(=O)c2cc3nc(-c4ccc(F)cc4)cc(C4(C)CC4)c3o2)C(C)(C)C1 (centres unmarked) shows pIC50 at minimum 8?
T

Confirm if pIC50 reported for the molecule Cc1cc(N2CCN(C(=O)c3cc4nc(-c5ccc(F)cc5)cc(C(C)(C)C)c4o3)C(C)(C)C2=O)[nH]n1 is 8 or above.
F

Threshold query (pIC50 >= 8) on CC(C)c1cc(-c2ccc(F)cc2)nc2cc(C(=O)N3CCN(C(=O)C4(O)CCOCC4)CC3)oc12
F

API: above_or_equal(metric=pIC50, cutoff=8) for item CC(C)(C)c1cc(-c2ccc(F)cc2)nc2cc(C(=O)N3CCN(C(=O)c4ccccn4)CC3(C)C)oc12
T

Answer whether pIC50 of CC(C)[C@@H](O)C(=O)N1CCN(C(=O)c2cc3nc(-c4ccc(F)cc4)cc(C4(C)CC4)c3o2)C(C)(C)C1 is greater than or equal to 8.
T

Test whether the molecule CN1CCN(C(=O)c2cc3nc(-c4ccc(Cl)cc4)cc(C(C)(C)C)c3o2)C(C)(C)C1=O records pIC50 of 8 or higher.
T

---

Molecular target: PAR2 (HT-29 cells) (Homo sapiens)
Construct: host or cells: HT-29
Sequence (P55085 26-397): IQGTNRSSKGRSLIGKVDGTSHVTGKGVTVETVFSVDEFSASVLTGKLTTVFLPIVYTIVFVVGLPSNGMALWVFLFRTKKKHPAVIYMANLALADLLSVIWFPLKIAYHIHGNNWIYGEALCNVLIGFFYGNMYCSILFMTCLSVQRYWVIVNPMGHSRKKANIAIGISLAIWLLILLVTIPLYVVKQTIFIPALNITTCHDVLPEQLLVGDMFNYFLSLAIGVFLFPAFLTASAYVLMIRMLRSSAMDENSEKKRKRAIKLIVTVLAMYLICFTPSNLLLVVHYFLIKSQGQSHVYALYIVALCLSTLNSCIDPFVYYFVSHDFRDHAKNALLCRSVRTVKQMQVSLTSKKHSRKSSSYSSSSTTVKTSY
Experiment: Ca FLIPR TETRA assay, ANTAGONIST mode, activator 3.1 U/mL trypsin
Format: cell-based
Conditions: HT-29 cells; activator 3.1 U/mL trypsin; Method A: maximal concentration of antagonist 0.1, 1 or 2 μM
endpoint_name: IC50

Worked examples, 2 compounds total:
• CC1(C)CCC(c2cc(C(C)(C)C)c3oc(C(=O)N4CCN(c5ncc(-c6nnn[nH]6)cn5)CC4(C)C)cc3n2)CC1 = 4.1 nM
• CC1(C)CCC(c2cc(C(C)(C)C)c3oc(C(=O)N4CCN(c5nc(C(=O)O)ccc5F)CC4(C)C)cc3n2)CC1 = 0.3 nM

Switching to the query record.
Recorded result, CC(C)(C)c1cc(-c2ccc(Cl)cc2)nc2cc(C(=O)N3CCN(c4cncc(C(=O)O)c4)CC3(C)C)oc12 , IC50: 1.8 nM

---

Items are presented alongside their recorded pIC50.
target: PAR2 (HT-29 cells) (Homo sapiens, UniProt P55085); construct: host or cells: HT-29; experiment: Ca FLIPR TETRA assay, ANTAGONIST mode, activator 3.1 U/mL trypsin; format: cell-based; details: HT-29 cells; activator 3.1 U/mL trypsin; Method A: maximal concentration of antagonist 0.1, 1 or 2 μM
# pIC50 = -log10(concentration in molar units)

Below, each entry is followed by its recorded pIC50 result.
• CC(C)(C)c1cc(C2CC3(CCC3)C2)nc2cc(C(=O)N3CCN(C(=O)[C@H]4CNCCO4)CC3(C)C)oc12 [Example I-445] = 6.59
• Cc1c[nH]nc1N1CCN(C(=O)c2cc3nc(C4CCC(C)(C)CC4)cc(C(C)(C)C)c3o2)C(C)(C)C1=O [Example I-313] = 6.51

# next molecule below
For Cc1cc(N2CCN(C(=O)c3cc4nc(C5CCC(C)(C)CC5)cc(C(C)(C)C)c4o3)C(C)(C)C2)ncc1C(=O)O [Example I-398] the molecule record lists pIC50 as 9.30

---

Known IC50 of a selection of compounds
Biological target: PAR2 (HT-29 cells) (Homo sapiens, UniProt P55085)
Construct: host or cells: HT-29
Sequence (P55085 26-397): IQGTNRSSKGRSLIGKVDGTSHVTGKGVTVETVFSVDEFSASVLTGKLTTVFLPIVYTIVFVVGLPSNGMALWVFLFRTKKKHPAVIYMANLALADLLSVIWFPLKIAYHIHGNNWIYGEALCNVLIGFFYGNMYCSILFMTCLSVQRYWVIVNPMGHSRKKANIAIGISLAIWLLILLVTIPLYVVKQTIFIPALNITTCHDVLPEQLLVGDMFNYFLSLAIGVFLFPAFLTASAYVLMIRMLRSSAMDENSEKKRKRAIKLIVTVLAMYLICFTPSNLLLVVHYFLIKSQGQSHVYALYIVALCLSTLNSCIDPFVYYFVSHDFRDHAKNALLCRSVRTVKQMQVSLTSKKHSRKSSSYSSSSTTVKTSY
Assay: Ca FLIPR TETRA assay, ANTAGONIST mode, activator 8 μM SLIGKV
Assay type: cell-based
Settings: HT-29 cells; activator 8 μM SLIGKV; Method A: maximal concentration of antagonist 0.1, 1 or 2 μM
// units = nM; emit number, no label

# count of solved cases: 3
- CC(C)(C)c1cc(-c2ccc(Cl)c(F)c2)nc2cc(C(=O)N3CCN(c4cc(C(=O)O)c(F)cn4)CC3(C)C)oc12 [Example I-517]: 1.4
- CC(C)(C)c1cc(N2CCC3(CC2)CC3)nc2cc(C(=O)N3CCN(C(=O)[C@H]4C[C@@](C)(O)C4)CC3(C)C)oc12 [Example I-435]: 1.6
- CC(C)[C@@H](CC(=O)N1CCN(C(=O)c2cc3nc(C4CCC(C)(C)CC4)cc(C(C)(C)C)c3o2)C(C)(C)C1)C(=O)O [Example I-319]: 0.2

In the following, a different compound is considered.
Recorded IC50 (compound CC(C)(C)c1cc(-c2ccc(Cl)c(F)c2)nc2cc(C(=O)N3CCN(c4nccnc4C(=O)O)CC3(C)C)oc12 [Example I-470] ): 5.7

---

target: PAR2 (HT-29 cells) (Homo sapiens, UniProt P55085); construct: host or cells: HT-29; test: Ca FLIPR TETRA assay, ANTAGONIST mode, activator 8 μM SLIGKV; assay type: cell-based; conditions: HT-29 cells; activator 8 μM SLIGKV; Method A: maximal concentration of antagonist 0.1, 1 or 2 μM
endpoint_name: pIC50
Lab note — pIC50 values are minus log10 of concentrations in M.

* Cc1cc(N2CCN(C(=O)c3cc4nc(-c5ccc(Cl)cc5)cc(C(C)(C)C)c4o3)C(C)(C)C2)ncc1C(=O)O [Example I-399] | 9.40
* CC(C)(C)c1cc(-c2ccc(Cl)c(F)c2)nc2cc(C(=O)N3CCN(c4ccncc4C(=O)O)CC3(C)C)oc12 [Example I-491] | 6.72
* Cc1oc(C2CCN(C(=O)c3cc4nc(-c5ccc(Cl)cc5)cc(C(C)(C)C)c4o3)C(C)(C)C2)nc1C(=O)O (stereo not shown) [Example I-431] | 9.15

Attention now turns to another entry.
Please fill in: pIC50 reported for CC1(C)CCC(c2cc(C(C)(C)C)c3oc(C(=O)N4CCN(c5ncc(C(=O)O)cc5F)CC4(C)C)cc3n2)CC1 [Example I-391] = 9.40
